Quick list: IC50 per entry.
- study-system: human metabotropic glutamate 7 receptor (hmGlu7) (Homo sapiens)
- assay-info: mGlu7 assay on HEK-expressing human mGlu7: fluorescent cell based Ca2+ mobilization assay (FLIPR), inhibition of EC80 L-AP4 response
- protocol-conditions: HEK-293 cells expressing hmGlu7; EC80 L-AP4 stimulation; mean of at least three independent experiments in duplicate; read-out: Ca2+ Flux (mean IC50)
measurement-label: IC50

| compound | measurement-label | endpoint-value |
| --- | --- | --- |
| COc1ccc(F)c(-n2c(C)c3cnn(-c4ccccn4)c(=O)c3c2C)c1 [1-194] | IC50 | 100 to 1000 nM |
| COc1ccc(-n2ncc3c(C)n(-c4ccccc4)c(C)c3c2=O)cn1 [1-52] | IC50 | 100 to 1000 nM |
| Cc1c2cnn(-c3ccc(N4CCNC(=O)C4)cc3)c(=O)c2c(C)n1-c1cccc(N2CCC2)c1 [1-178] | IC50 | < 100 nM |
| Cc1c2cnn(-c3ccc(C(=O)CNC(=O)OC(C)(C)C)cc3)c(=O)c2c(C)n1-c1cccc(N2CCC2)c1 [1-184] | IC50 | 100 to 1000 nM |
| Cc1cncc(-n2ncc3c(C)n(-c4cccc(N5CCC5)c4)c(C)c3c2=O)c1 [1-158] | IC50 | < 100 nM |
| COc1cccc(-n2c(C)c3cnn(-c4ccccn4)c(=O)c3c2C)c1 [1-44] | IC50 | 100 to 1000 nM |
| Cc1c2cnn(-c3ccccn3)c(=O)c2c(C)n1-c1cc(F)cc(N2CCC2)c1 [1-195] | IC50 | < 100 nM |
| Cc1c2cnn(-c3cccc(S(C)(=O)=O)c3)c(=O)c2c(C)n1-c1cccc(N2CCC2)c1 [1-151] | IC50 | < 100 nM |
| COc1cccc(-n2c(C)c3cnn(-c4ccnc(OC)c4)c(=O)c3c2C)c1 [1-121] | IC50 | < 100 nM |
| COc1cccc(-n2c(C)c3cnn(-c4cccnc4)c(=O)c3c2C)c1 [1-41] | IC50 | 100 to 1000 nM |
| COc1cccc(-n2c(C)c3cnn(-c4cccc(OC)n4)c(=O)c3c2C)c1 [1-74] | IC50 | 1000 to 10000 nM |
| Cc1c2cnn(-c3ccc(C#N)cn3)c(=O)c2c(C)n1-c1cccc(N2CCC2)c1 [1-160] | IC50 | < 100 nM |
| Cc1c2cnn(-c3cccnc3)c(=O)c2c(C)n1-c1cccc(N2CCC2)c1 [1-164] | IC50 | < 100 nM |
| Cc1ccc(-n2ncc3c(C)n(-c4ccccc4)c(C)c3c2=O)cc1 [1-15] | IC50 | < 100 nM |
| Cc1c2cnn(-c3cccc(F)c3)c(=O)c2c(C)n1-c1ccccc1 [1-10] | IC50 | 100 to 1000 nM |
| COCCNc1ccc(-n2c(C)c3cnn(-c4ccccc4)c(=O)c3c2C)cc1 [1-42] | IC50 | 1000 to 10000 nM |
| COc1cccc(-n2c(C)c3cnn(-c4ccc(C(C)O)cc4)c(=O)c3c2C)c1 (stereo not drawn) [1-138] | IC50 | < 100 nM |
| COc1ccccc1-n1c(C)c2cnn(-c3ccccc3)c(=O)c2c1C [1-18] | IC50 | 100 to 1000 nM |

====

- study-system: UniProt Q14831
- assay-info: mGlu7 assay on HEK-expressing human mGlu7: fluorescent cell based Ca2+ mobilization assay (FLIPR), inhibition of EC80 L-AP4 response
- protocol-conditions: HEK-293 cells expressing hmGlu7; EC80 L-AP4 stimulation; mean of at least three independent experiments in duplicate; read-out: Ca2+ Flux (mean IC50)
Quick list: IC50 per entry.

| structure-smiles-string | IC50 |
| --- | --- |
| CNCc1ccc(-n2ncc3c(C)n(-c4cccc(OC)c4)c(C)c3c2=O)cc1 | 100 to 1000 nM |
| Cc1c2cnn(-c3ccc(CC(N)=O)cc3)c(=O)c2c(C)n1-c1cccc(N2CCC2)c1 | < 100 nM |
| COc1cccc(-n2c(C)c3cnn(-c4ccccc4Cl)c(=O)c3c2C)c1 | 100 to 1000 nM |
| Cc1c2cnn(-c3ccccc3)c(=O)c2c(C)n1-c1ccccc1 | 100 to 1000 nM |
| CNC(=O)Cc1ccc(-n2ncc3c(C)n(-c4cccc(N5CCC5)c4)c(C)c3c2=O)cc1 | < 100 nM |

====

- study-system: human metabotropic glutamate 7 receptor (hmGlu7) (Homo sapiens, UniProt Q14831)
- Sequence (Q14831 35-922 isoform Q14831-2): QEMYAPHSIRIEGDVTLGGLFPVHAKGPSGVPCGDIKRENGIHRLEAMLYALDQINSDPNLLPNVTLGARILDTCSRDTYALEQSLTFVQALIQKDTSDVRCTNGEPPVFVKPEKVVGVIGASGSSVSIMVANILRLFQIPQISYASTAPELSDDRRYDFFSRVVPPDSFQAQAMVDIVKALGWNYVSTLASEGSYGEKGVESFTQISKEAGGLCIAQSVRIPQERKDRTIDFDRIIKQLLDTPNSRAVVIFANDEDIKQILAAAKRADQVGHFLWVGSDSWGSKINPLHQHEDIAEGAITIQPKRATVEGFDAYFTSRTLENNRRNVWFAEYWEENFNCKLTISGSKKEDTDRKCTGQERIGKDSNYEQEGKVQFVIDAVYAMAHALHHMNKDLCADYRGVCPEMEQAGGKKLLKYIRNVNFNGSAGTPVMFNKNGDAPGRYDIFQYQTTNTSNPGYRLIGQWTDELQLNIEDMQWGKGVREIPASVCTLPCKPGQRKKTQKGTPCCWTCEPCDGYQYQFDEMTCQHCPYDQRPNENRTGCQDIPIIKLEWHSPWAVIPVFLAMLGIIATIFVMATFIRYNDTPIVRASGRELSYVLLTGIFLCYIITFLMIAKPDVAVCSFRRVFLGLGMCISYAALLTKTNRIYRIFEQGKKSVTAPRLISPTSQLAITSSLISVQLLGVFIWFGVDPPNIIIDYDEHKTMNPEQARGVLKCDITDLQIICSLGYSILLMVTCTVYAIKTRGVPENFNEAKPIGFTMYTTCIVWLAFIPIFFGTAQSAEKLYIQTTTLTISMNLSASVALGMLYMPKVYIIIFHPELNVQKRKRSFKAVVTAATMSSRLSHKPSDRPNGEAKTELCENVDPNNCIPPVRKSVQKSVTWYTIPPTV
- assay-info: mGlu7 assay on HEK-expressing human mGlu7: fluorescent cell based Ca2+ mobilization assay (FLIPR), inhibition of EC80 L-AP4 response
- protocol-conditions: HEK-293 cells expressing hmGlu7; EC80 L-AP4 stimulation; mean of at least three independent experiments in duplicate; read-out: Ca2+ Flux (mean IC50)
pIC50: −log10 of the molar value.
Quick list: pIC50 per entry.
measurement-label: pIC50

| molecule | endpoint-value |
| --- | --- |
| COc1cccc(-n2c(C)c3cnn(-c4ccccc4F)c(=O)c3c2C)c1 [1-149] | > 7.00 |
| Cc1ccc(-n2c(C)c3cnn(-c4cccnc4)c(=O)c3c2C)cc1 [1-39] | 6.00 to 7.00 |
| COc1cccc(-n2c(C)c3cnn(-c4cccc(CC#N)c4)c(=O)c3c2C)c1 [1-146] | > 7.00 |
| Cc1c2cnn(-c3cccc(N4CCOCC4)c3)c(=O)c2c(C)n1-c1cccc(N2CCC2)c1 [1-167] | 6.00 to 7.00 |
| Cc1c2cnn(-c3ccc(Cl)cn3)c(=O)c2c(C)n1-c1cccc(N2CCC2)c1 [1-183] | > 7.00 |
| Cc1c2cnn(C34CC(C3)C4)c(=O)c2c(C)n1-c1cccc(N2CCC2)c1 [1-222] | 6.00 to 7.00 |
| CNC(=O)c1ccc(-n2ncc3c(C)n(-c4cccc(OC)c4)c(C)c3c2=O)cc1 [1-113] | 6.00 to 7.00 |
| Cc1c2cnn(-c3ccccn3)c(=O)c2c(C)n1-c1ccc(Cl)cc1 [1-3] | 6.00 to 7.00 |
| COc1cccc(-n2c(C)c3cnn(-c4ccc(CO)cc4)c(=O)c3c2C)c1 [1-66] | > 7.00 |
| COc1cccc(-n2c(C)c3cnn(-c4ccc(O)nc4)c(=O)c3c2C)c1 [1-131] | 6.00 to 7.00 |
| Cc1ccc(-n2c(C)c3cnn(-c4ccccn4)c(=O)c3c2C)nc1 [1-56] | 5.00 to 6.00 |
| COc1cccc(-n2c(C)c3cnn(-c4cccc(CO)c4)c(=O)c3c2C)c1 [1-114] | 6.00 to 7.00 |
| Cc1c2cnn(-c3ccccn3)c(=O)c2c(C)n1-c1cc(N2CCC2)ccc1F [1-196] | > 7.00 |
| COc1cc(-n2c(C)c3cnn(-c4ccccn4)c(=O)c3c2C)ccc1Cl [1-72] | 5.00 to 6.00 |
| Cc1c2cnn(-c3cccc(C(N)=O)c3)c(=O)c2c(C)n1-c1cccc(N2CCC2)c1 [1-152] | 6.00 to 7.00 |
| COCc1ccc(-n2ncc3c(C)n(-c4cccc(OC)c4)c(C)c3c2=O)cc1 [1-128] | 6.00 to 7.00 |
| Cc1ccccc1-n1c(C)c2cnn(-c3ccccc3)c(=O)c2c1C [1-7] | 6.00 to 7.00 |
| COc1cc(F)ccc1-n1c(C)c2cnn(-c3ccccn3)c(=O)c2c1C [1-191] | 5.00 to 6.00 |
| COc1cccc(-n2c(C)c3cnn(-c4ccc(C)cn4)c(=O)c3c2C)c1 [1-172] | 6.00 to 7.00 |

====

- study-system: human metabotropic glutamate 7 receptor (hmGlu7) (Homo sapiens, UniProt Q14831)
- assay-info: mGlu7 assay on HEK-expressing human mGlu7: fluorescent cell based Ca2+ mobilization assay (FLIPR), inhibition of EC80 L-AP4 response
- protocol-conditions: HEK-293 cells expressing hmGlu7; EC80 L-AP4 stimulation; mean of at least three independent experiments in duplicate; read-out: Ca2+ Flux (mean IC50)
- Description: mGlu7 Assay on HEK-Expressing Human mGlu7 […] After 10 s of basal fluorescence recording, various concentrations of the compounds of the invention were added to the cells. Changes in fluorescence levels were first monitored for 180 s in order to detect any agonist activity of the compounds. […]
pIC50: −log10 of the molar value.

| structure-smiles-string | pIC50 |
| --- | --- |
| Cc1cccc(-n2c(C)c3cnn(-c4ccccc4)c(=O)c3c2C)c1 | > 7.00 |
| Cc1c2cnn(-c3ccccc3)c(=O)c2c(C)n1-c1cccc(N2CCC2)c1 | > 7.00 |
| CCc1cccc(-n2c(C)c3cnn(-c4ccccn4)c(=O)c3c2C)c1 | 6.00 to 7.00 |
| Cc1c(OC2CC2)cccc1-n1c(C)c2cnn(-c3ncc(F)cn3)c(=O)c2c1C | > 7.00 |
| Cc1c2cnn(-c3ccccn3)c(=O)c2c(C)n1-c1ccc2cc[nH]c2c1 | 5.00 to 6.00 |
| CC(=O)NCc1ccc(-n2ncc3c(C)n(-c4ccccc4)c(C)c3c2=O)cc1 | 6.00 to 7.00 |
| COc1cccc(-n2c(C)c3cnn(-c4ccc(C#N)cc4)c(=O)c3c2C)c1 | 6.00 to 7.00 |
| COc1ccc(-n2ncc3c(C)n(-c4ccccc4)c(C)c3c2=O)cc1 | 6.00 to 7.00 |
| Cc1c2cnn(-c3cccc(C#N)c3)c(=O)c2c(C)n1-c1ccccc1 | 6.00 to 7.00 |
